MEASUREMENT_TARGET: T1, P10-AA
T1 chain: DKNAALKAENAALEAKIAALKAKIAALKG
ASSAY: two-hybrid library CCmax;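 further: natural log of median RNA to DNA barcode read ratio; higher means stronger binding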
CONDITION_SUMMARY: mean of both orientations
PROPERTY_MEASURED: interaction score

DELAAEEAKNAALKAKLAAAKAEIAALEG [AP7-AA]: -0.0128
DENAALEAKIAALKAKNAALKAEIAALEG [4H1401-AA]: -0.931
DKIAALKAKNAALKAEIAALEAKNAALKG [4H3016-AA]: -0.503
DEEAALEAKAAALKAELAANEAKLAAAKG [AP6-AA]: -0.802
DKNAALKAENAALEAEIAALEAEIAALEG [O1-AA]: 1.05

a: DEIAALEAENAALEAEIAALEAKNAALKG [O8-AA]
b: DENAALEAEIAALEAKNAALKAEIAALEG [O5-AA]
c: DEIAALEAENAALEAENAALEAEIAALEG [P1-AA]
Task for the reader: rank each entry by its interaction score, from the minimum upward. Please respond with the labels ordered as the question requires.
a, c, b
